Test system: membrane potential response (non-specific ion channel blockers or enhancers)
Experiment: KCl counterscreen (membrane potential response, 10 mM KCl instead of ATP)
Assay type: cell-based
Conditions: Homo sapiens, 10 μM compound, read-out: KCl Counterscreen (percent inhibition)

[
  {
    "molecule": "COc1c(Cl)cccc1-c1cn2ccccc2n1 [Example 13]",
    "inhibition at 10 µM, %": -10
  },
  {
    "molecule": "Cc1ccc(-c2cn3ncsc3n2)cc1 [Example 5]",
    "inhibition at 10 µM, %": 7
  },
  {
    "molecule": "CN(C)CC(=O)Nc1nc(-c2ccc(Cl)cc2)cs1 [Example 16]",
    "inhibition at 10 µM, %": -9
  },
  {
    "molecule": "O=C(Nc1ccccc1)N1CCCN(c2nc(-c3ccccc3)ns2)CC1 [Example 6]",
    "inhibition at 10 µM, %": 16
  },
  {
    "molecule": "N=c1sccn1CC(=O)c1cccc([N+](=O)[O-])c1 [Example 11]",
    "inhibition at 10 µM, %": 21
  },
  {
    "molecule": "COc1ccccc1OCCSc1nc2ccccc2[nH]1 [Example 2]",
    "inhibition at 10 µM, %": -3
  }
]

====

Biological target: human TRPM5 (Homo sapiens, UniProt Q9NZQ8)
Construct: expressed in transfected cells
Sequence (Q9NZQ8 whole entry): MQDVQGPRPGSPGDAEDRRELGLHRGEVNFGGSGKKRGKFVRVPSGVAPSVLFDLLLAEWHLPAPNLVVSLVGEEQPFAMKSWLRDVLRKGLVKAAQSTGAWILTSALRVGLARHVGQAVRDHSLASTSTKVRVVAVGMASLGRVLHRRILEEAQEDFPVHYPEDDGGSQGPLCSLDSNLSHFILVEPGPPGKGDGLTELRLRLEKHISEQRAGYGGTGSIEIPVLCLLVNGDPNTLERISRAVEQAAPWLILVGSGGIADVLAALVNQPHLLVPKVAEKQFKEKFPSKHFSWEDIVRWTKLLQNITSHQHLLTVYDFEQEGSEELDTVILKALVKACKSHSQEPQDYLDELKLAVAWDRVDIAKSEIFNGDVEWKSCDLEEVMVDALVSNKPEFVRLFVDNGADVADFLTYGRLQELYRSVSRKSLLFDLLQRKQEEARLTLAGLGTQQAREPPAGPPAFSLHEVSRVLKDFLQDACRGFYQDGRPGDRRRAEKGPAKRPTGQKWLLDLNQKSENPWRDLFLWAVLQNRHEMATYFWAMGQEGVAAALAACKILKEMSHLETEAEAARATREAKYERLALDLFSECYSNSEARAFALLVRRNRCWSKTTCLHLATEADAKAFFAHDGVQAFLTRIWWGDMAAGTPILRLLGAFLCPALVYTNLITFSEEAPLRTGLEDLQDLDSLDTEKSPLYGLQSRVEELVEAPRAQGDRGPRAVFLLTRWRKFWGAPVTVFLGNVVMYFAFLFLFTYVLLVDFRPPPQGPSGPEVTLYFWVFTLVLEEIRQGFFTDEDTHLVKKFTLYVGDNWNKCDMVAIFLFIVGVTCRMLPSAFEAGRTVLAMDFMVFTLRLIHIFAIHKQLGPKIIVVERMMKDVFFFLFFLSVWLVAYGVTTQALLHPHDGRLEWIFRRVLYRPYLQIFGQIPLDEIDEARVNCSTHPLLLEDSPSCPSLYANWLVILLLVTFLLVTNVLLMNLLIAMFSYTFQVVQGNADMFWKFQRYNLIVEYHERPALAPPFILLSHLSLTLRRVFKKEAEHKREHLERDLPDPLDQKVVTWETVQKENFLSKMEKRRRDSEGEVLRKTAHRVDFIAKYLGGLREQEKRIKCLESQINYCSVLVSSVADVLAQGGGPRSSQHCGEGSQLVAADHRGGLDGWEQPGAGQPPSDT
Test: TRPM5 membrane potential dye FLIPR assay in hTRPM5-HEK293 cells, ATP stimulated
Type: cell-based
Conditions: 10 μM compound, 3 μM ATP, read-out: TRPM5 Activity (percent inhibition; enhancement is negative inhibition)
Reported inhibition at 10 µM values for the following compounds.

[
  {
    "compound": "CCn1c(C)nc([N+](=O)[O-])c1Sc1ccc(Cl)cn1 [Example 8]",
    "target.system": "human TRPM5 (Homo sapiens, UniProt Q9NZQ8)",
    "inhibition at 10 µM": "-76%"
  },
  {
    "compound": "CN(C)CC(=O)Nc1nc(-c2ccc(Cl)cc2)cs1 [Example 16]",
    "target.system": "human TRPM5 (Homo sapiens, UniProt Q9NZQ8)",
    "inhibition at 10 µM": "-23%"
  },
  {
    "compound": "Cc1ccc(-c2cn3ncsc3n2)cc1 [Example 5]",
    "target.system": "human TRPM5 (Homo sapiens, UniProt Q9NZQ8)",
    "inhibition at 10 µM": "-100%"
  },
  {
    "compound": "C=CCNC(=S)/N=c1\\sc2ccccc2n1C [Example 10]",
    "target.system": "human TRPM5 (Homo sapiens, UniProt Q9NZQ8)",
    "inhibition at 10 µM": "-73%"
  },
  {
    "compound": "CCOC(=O)C/N=c1\\sc2ccccc2n1C [Example 1]",
    "target.system": "human TRPM5 (Homo sapiens, UniProt Q9NZQ8)",
    "inhibition at 10 µM": "-139%"
  },
  {
    "compound": "COc1ccccc1OCCSc1nc2ccccc2[nH]1 [Example 2]",
    "target.system": "human TRPM5 (Homo sapiens, UniProt Q9NZQ8)",
    "inhibition at 10 µM": "-136%"
  }
]

====

Reported inhibition at 10 µM values for the following molecules.
Target: human TRPM5 (Homo sapiens)
Construct: expressed in transfected cells
Assay: TRPM5 membrane potential dye FLIPR assay in hTRPM5-HEK293 cells, ATP stimulated
Type: cell-based
Details: 10 μM compound, 3 μM ATP, read-out: TRPM5 Activity (percent inhibition; enhancement is negative inhibition)
endpoint.label: inhibition at 10 µM

[
  {
    "cpd.smiles": "O=C(Nc1ccccc1)N1CCCN(c2nc(-c3ccccc3)ns2)CC1",
    "measured.result": "-98%"
  },
  {
    "cpd.smiles": "COC(=O)c1sccc1Oc1ccc([N+](=O)[O-])cn1",
    "measured.result": "-113%"
  },
  {
    "cpd.smiles": "N=c1sccn1CC(=O)c1cccc([N+](=O)[O-])c1",
    "measured.result": "-68%"
  },
  {
    "cpd.smiles": "Cn1nc(C(F)(F)F)c(C(=O)Nc2ccc(C(F)(F)F)cc2)c1Cl",
    "measured.result": "-16%"
  },
  {
    "cpd.smiles": "COc1cccc(OC)c1OCCSc1nc2ccccc2n1CCO",
    "measured.result": "-95%"
  },
  {
    "cpd.smiles": "CCc1ccc(-c2csc(NC(=O)c3cc(OC)cc(OC)c3)n2)cc1",
    "measured.result": "-55%"
  },
  {
    "cpd.smiles": "O=c1sc2ccccc2c2c1ncn2-c1ccccc1",
    "measured.result": "-48%"
  },
  {
    "cpd.smiles": "CCc1nnc2nc(-c3ccc(Cl)c([N+](=O)[O-])c3)[nH]n12",
    "measured.result": "-101%"
  },
  {
    "cpd.smiles": "CC1(C)C(c2ccccc2)=NC(c2ccccc2)=[N+]1[O-]",
    "measured.result": "-73%"
  },
  {
    "cpd.smiles": "COc1c(Cl)cccc1-c1cn2ccccc2n1",
    "measured.result": "-57%"
  }
]
